Tested on: Plasmodium falciparum
Assay: Hit confirmation in dose-response curve in NF54 pLDH assay, at 72h
Format: functional, organism-based
Parameters: timepoint 72 hour
Conditions: NF54, Erythrocyte
Task for the reader: assign each of the following molecules its reported pIC50.
Reminder that pIC50 is minus the log10 of a molar concentration.

What value of measured pIC50 is listed for Cc1cc(N(C)CCC2CC2)nc([C@H](C)N(C)CCC2CC2)n1 ?
5.62

Try O=C(Nc1c(S(=O)(=O)c2ccccc2)c2nc3ccccc3nc2n1CCc1ccccc1)c1ccc(Cl)cc1 next.
4.95

Try this molecule too: Cc1ccc(C)c(-n2cnc(=O)n2[C@H]2CCN(C3CC3)C2=O)c1
5.08

And what about the molecule Oc1nc(N2CCOC3(CCCC3)C2)ncc1F ?
5.37

Another: CCc1cccc(NC(=O)N2CCC3(CC2)C(=O)N(CC(=O)Nc2ccc(F)cc2)CN3c2ccccc2)c1
4.97

Queued: Cc1nn(-c2nc3ccccc3[nH]2)c(O)c1CCC(C)C
5.07

Query C=CCCC(CN1C[C@H]2CC=CC[C@H]2C1)Oc1ncc(F)cn1 (some centres not stated) next
7.65

Next: Cc1cc[n+]2c(-c3ccccc3)cc(-c3ccccc3)nc2c1
5.59

Check Cc1cnccc1NCCNC1CCN(c2ccc3c(c2)CCC3)CC1 too.
5.99

Moving on to the next molecule: CC(C)C(NC(=O)COc1ccccc1)C(=O)NCC(c1ccccc1Cl)c1c[nH]c2ccccc12 (configuration not stated)
5.04

Now give it for CCOC(=O)CCn1cc(F)c(=O)[nH]c1=O too.
7.15

Same for Oc1cccc(CN2CCC3(CC2)C[C@H](c2ccccc2)CN(C2CC2)C3)c1
5.20

Same again, this time with COc1ccc(F)cc1S(=O)(=O)N1CCc2noc(N)c2C1
6.04

Further, for Nc1c(-c2nc3ccccc3[nH]2)c2nc3ccccc3nc2n1Cc1ccccc1F ?
5.96

Also need O=C(c1ccccc1)c1cc(Cl)ccc1NC(=O)[C@H]1CC(=O)N(c2ccc(F)cc2)C1 , thanks.
5.47

Here is the next molecule: Cc1cc(C)c(NC(=O)OCc2cccc3cccnc23)c(C)c1
5.55

// query: Cc1cc(C(=O)NC2CC(C)n3ccnc32)nn1C(C)C (configuration not stated)
7.00

Queued: C=C1C(C)C2C(Cc3c[nH]c4ccccc34)NC(=O)C23C(=O)CC(O)C(O)CC(C)C/C=C/C3C1O (configuration not stated)
5.50

Would you kindly repeat that for FC(F)(F)C1CN(c2nc(-c3ccccn3)nc3c2CCC3)C1 ?
5.61

Also CCCCN(CC)CCNC(=O)C1CCN(C2=NS(=O)(=O)C(c3ccc(OC)cc3)=C2C)CC1 ?
5.92

Please give the result for Cc1nn(-c2nc3ccccc3[nH]2)c2c1[C@@H](c1cccnc1)CC(=O)N2 too.
5.19
